Tested on: STAPHYLOCOCCUS AUREUS CMX 642A
Assay: In vitro antibacterial activity, MIC, BHI agar dilution
Format: cell-based
Conditions: S. aureus CMX 642A, unit assumed
result.type: MIC (µg/mL)

1) CC[C@H]1OC(=O)[C@H](C)C(=O)[C@H](C)[C@@H](O[C@@H]2O[C@H](C)C[C@H](N(C)C)[C@H]2O)[C@](C)(OC)C[C@@H](C)C2=NC(COCc3ccccc3)C(COCc3ccccc3)N3C(=O)O[C@@]1(C)[C@H]3[C@H]2C (stereo partly shown)
0.39
2) CC[C@H]1OC(=O)[C@H](C)C(=O)[C@H](C)[C@@H](O[C@@H]2O[C@H](C)C[C@H](N(C)C)[C@H]2O)[C@](C)(OC)C[C@@H](C)C2=NC3CN(C)CC3N3C(=O)O[C@@]1(C)[C@H]3[C@H]2C (stereo partly shown)
1.56
3) CC[C@H]1OC(=O)[C@H](C)C(=O)[C@H](C)[C@@H](O[C@@H]2O[C@H](C)C[C@H](N(C)C)[C@H]2O)[C@](C)(OC)C[C@@H](C)C2=N[C@H](COCc3ccc(F)cc3)CN3C(=O)O[C@@]1(C)[C@H]3[C@H]2C
0.1
4) CC[C@H]1OC(=O)[C@H](C)C(=O)[C@H](C)[C@@H](O[C@@H]2O[C@H](C)C[C@H](N(C)C)[C@H]2O)[C@](C)(OC)C[C@@H](C)C2=NC[C@@H](Cc3ccccc3)N3C(=O)O[C@@]1(C)[C@H]3[C@H]2C
0.1
5) CC[C@H]1OC(=O)[C@H](C)C(=O)[C@H](C)[C@@H](O[C@@H]2O[C@H](C)C[C@H](N(C)C)[C@H]2O)[C@](C)(OC)C[C@@H](C)C2=N[C@@H]3CCCC[C@@H]3N3C(=O)O[C@@]1(C)[C@H]3[C@H]2C
0.78
6) CC[C@H]1OC(=O)[C@H](C)C(=O)[C@H](C)[C@@H](O[C@@H]2O[C@H](C)C[C@H](N(C)C)[C@H]2O)[C@](C)(OC)C[C@@H](C)C2=N[C@H](COCc3ccnc4ccccc34)CN3C(=O)O[C@@]1(C)[C@H]3[C@H]2C
0.2
7) CC[C@H]1OC(=O)[C@H](C)C(=O)[C@H](C)[C@@H](O[C@@H]2O[C@H](C)C[C@H](N(C)C)[C@H]2O)[C@](C)(OC)C[C@@H](C)C2=NC3CN(CC(OC)OC)CC3N3C(=O)O[C@@]1(C)[C@H]3[C@H]2C (stereo partly shown)
3.1
8) CC[C@H]1OC(=O)[C@H](C)C(=O)[C@H](C)[C@@H](O[C@@H]2O[C@H](C)C[C@H](N(C)C)[C@H]2O)[C@](C)(OC)C[C@@H](C)C2=NCC(CN(C)Cc3ccccc3)N3C(=O)O[C@@]1(C)[C@H]3[C@H]2C (stereo partly shown)
0.39
9) CC[C@H]1OC(=O)[C@H](C)C(=O)[C@H](C)[C@@H](O[C@@H]2O[C@H](C)C[C@H](N(C)C)[C@H]2O)[C@](C)(OC)C[C@@H](C)C2=N[C@H](CN3CCN(C)CC3)CN3C(=O)O[C@@]1(C)[C@H]3[C@H]2C
0.78
10) CC[C@H]1OC(=O)[C@H](C)C(=O)[C@H](C)[C@@H](O[C@@H]2O[C@H](C)C[C@H](N(C)C)[C@H]2O)[C@](C)(OC)C[C@@H](C)C2=N[C@H](COCc3ccccn3)CN3C(=O)O[C@@]1(C)[C@H]3[C@H]2C
0.39
11) CC[C@H]1OC(=O)[C@H](C)C(=O)[C@H](C)[C@@H](O[C@@H]2O[C@H](C)C[C@H](N(C)C)[C@H]2O)[C@](C)(OC)C[C@@H](C)C2=N[C@@H]3COC[C@@H]3N3C(=O)O[C@@]1(C)[C@H]3[C@H]2C
0.78
12) CC[C@H]1OC(=O)[C@H](C)C(=O)[C@H](C)[C@@H](O[C@@H]2O[C@H](C)C[C@H](N(C)C)[C@H]2O)[C@](C)(OC)C[C@@H](C)C2=N[C@H](COCc3ccncc3)CN3C(=O)O[C@@]1(C)[C@H]3[C@H]2C
0.39
13) CCC1OC(=O)C(C)C(=O)C(C)C(OC2OC(C)CC(N(C)C)C2O)C(C)(OC)CC(C)C2=NC(CN)CN3C(=O)OC1(C)C3C2C (stereo not shown)
0.2
14) CC[C@H]1OC(=O)[C@H](C)C(=O)[C@H](C)[C@@H](O[C@@H]2O[C@H](C)C[C@H](N(C)C)[C@H]2O)[C@](C)(OC)C[C@@H](C)C2=NC[C@H](Cc3ccc(I)cc3)N3C(=O)O[C@@]1(C)[C@H]3[C@H]2C
0.2
15) CC[C@H]1OC(=O)[C@H](C)C(=O)[C@H](C)[C@@H](O[C@@H]2O[C@H](C)C[C@H](N(C)C)[C@H]2O)[C@](C)(OC)C[C@@H](C)C2=N[C@@H]3CN(Cc4ccccc4)C[C@@H]3N3C(=O)O[C@@]1(C)[C@H]3[C@H]2C
6.2
16) CC[C@H]1OC(=O)[C@H](C)C(=O)[C@H](C)[C@@H](O[C@@H]2O[C@H](C)C[C@H](N(C)C)[C@H]2O)[C@](C)(OC)C[C@@H](C)C2=NC[C@H](CCCc3ccccc3)N3C(=O)O[C@@]1(C)[C@H]3[C@H]2C
0.78
